- Test system: OVCAR-5 ovarian
- Procedure text: NCI-60 one-dose screen, 48 h (100 = growth as untreated, 0 = no growth, -100 = all killed)
- Measurement parameters: 10 µM unless noted
The panel holds about 83,000 compounds, 20% with a hit somewhere; the sample as a whole holds those more often. Active and inactive are the calls of the source. Rule for the calls: active = growth percent below 10; inactive = the rest.
Readout type: growth

QUERY: Form field: growth recorded for O=C(c1ccccc1)N(C(=S)NCCc1ccc(Cl)cc1)c1ccccc1 with OVCAR-5 ovarian (enter value)
RESULT: 91.2% (inactive)

QUERY: Form field: growth recorded for CC(C)C[C@H](C(=O)N[C@@H](C)C(N)=O)N1CC=CCN(O)S1(=O)=O with OVCAR-5 ovarian (enter value)
RESULT: 99.3% [5 µM] (inactive)
